These data points were gathered from patent US20040229268A1.

# Test system: VanA and VanB gene sequences
# TEST: HPA for detecting VanA and VanB gene sequences (Example 12)
# Type: binding, E. faecalis, E. faecium
# SETUP_CONDITIONS: VanB clone (plasmid)
READOUT: Probe Hybridization (in RLU)
Reply numerically in RLU, unit not repeated.

CHAIN_SEQUENCE: CCGCAGCTTGCATGGACAAATCACTGGC (DNA, backbone and methylation of C not given here; further chemistry not fully specified; listed as Enterococcus faecalis) [VanB(+)084]
UNIT_SYMBOL: RLU
ENDPOINT_RESULT: 54711
--
CHAIN_SEQUENCE: CCAAGCACCCGATATACTTTCTTTGCC (DNA, backbone and methylation of C not given here; further chemistry not fully specified; listed as Enterococcus faecalis) [VanB(−)1006]
UNIT_SYMBOL: RLU
ENDPOINT_RESULT: 27493
--
CHAIN_SEQUENCE: GGGTTGCTCAGAGGAGCATGACGTATCGG (DNA, backbone and methylation of C not given here; further chemistry not fully specified; listed as Enterococcus faecium) [VanA(+)464]
UNIT_SYMBOL: RLU
ENDPOINT_RESULT: 817
--
CHAIN_SEQUENCE: CGTTCAGTACAATGCGGCCG (DNA, backbone and methylation of C not given here; further chemistry not fully specified; listed as Enterococcus faecium) [VanA(−)1325]
UNIT_SYMBOL: RLU
ENDPOINT_RESULT: 942
--
CHAIN_SEQUENCE: GCTGAGCTTTGAATATCGCAGCC (AE label linker 8/9, chemistry not fully specified; listed as Enterococcus faecium) [VanA(−)792]
UNIT_SYMBOL: RLU
ENDPOINT_RESULT: 505

query: Can you look up the measured Probe Hybridization (in RLU) of CGCATCCATCAGGAAAACGAGCCGG (DNA, backbone and methylation of C not given here; acridinium ester (AE) label attached via linker; listed as Enterococcus faecalis) [VanB(+)428] for me?
result: 49242

* * *

# Tested on: mecA gene; Staphylococcus ribosomal nucleic acids
# TEST: HPA after thermal lysis, base hydrolysis and neutralization (Examples 5-7)
# Format: binding, S. aureus
# SETUP_CONDITIONS: Table 9; lysis 10 minutes, hybridization 20 minutes
// assign Criterion met if GP1217(Pos) RLU falls strictly below 30000 RLU, else Criterion not met (ties count as Criterion not met)

The following sequences have reported results that may help.
CHAIN_SEQUENCE: GCTCCAACATGAAGATGGCTATCGTGTCACAATCG (DNA, backbone and methylation of C not given here; acridinium ester label on internal non-nucleotide linker; listed as Staphylococcus aureus) [probe 5]
LABEL_CLASS: Criterion not met
--
CHAIN_SEQUENCE: GCGATAATGGTGAAGTAGAAATGACTGAACGTCCG (DNA, backbone and methylation of C not given here; acridinium ester label on internal non-nucleotide linker; listed as Staphylococcus aureus) [probe 3]
LABEL_CLASS: Criterion not met
--
CHAIN_SEQUENCE: CGGACGTTCAGTCATTTCTACTTCACCATTATCGC (DNA, backbone and methylation of C not given here; acridinium ester label on internal non-nucleotide linker; listed as Staphylococcus aureus) [probe 4]
LABEL_CLASS: Criterion not met
--
CHAIN_SEQUENCE: CGATTGTGACACGATAGCCATCTTCATGTTGGAGC (DNA, backbone and methylation of C not given here; acridinium ester label on internal non-nucleotide linker; listed as Staphylococcus aureus) [probe 6]
LABEL_CLASS: Criterion not met

Next:
query: Strictly below 30000 RLU: is that where GP1217(Pos) RLU of GGTATGTGGAAGTTAGATTGGGATCATAGCG (AE label, linker between 13 and 14, chemistry not fully specified; listed as Staphylococcus aureus) [Probe 1] sits?
result: Criterion met

* * *

# System: VanA and VanB gene sequences
# TEST: HPA for detecting VanA and VanB gene sequences (Example 12)
# Format: binding, E. faecalis, E. faecium
# SETUP_CONDITIONS: VanA clone (plasmid)
// assign true if Probe Hybridization (in RLU) falls strictly below 40000 RLU, else false (ties count as false)

The following sequences have reported results that may help.
CHAIN_SEQUENCE: GGGTTGCTCAGAGGAGCATGACGTATCGG (DNA, backbone and methylation of C not given here; further chemistry not fully specified; listed as Enterococcus faecium) [VanA(+)464]
LABEL_CLASS: true
--
CHAIN_SEQUENCE: CGCATCCATCAGGAAAACGAGCCGG (DNA, backbone and methylation of C not given here; acridinium ester (AE) label attached via linker; listed as Enterococcus faecalis) [VanB(+)428]
LABEL_CLASS: true
--
CHAIN_SEQUENCE: GAGCTTTGAATATCGCAGCCTAC (AE label linker 11/12, chemistry not fully specified; listed as Enterococcus faecalis) [Van A&B(−)734]
LABEL_CLASS: false
--
CHAIN_SEQUENCE: CCGCAGCTTGCATGGACAAATCACTGGC (DNA, backbone and methylation of C not given here; further chemistry not fully specified; listed as Enterococcus faecalis) [VanB(+)084]
LABEL_CLASS: true
--
CHAIN_SEQUENCE: CGTTCAGTACAATGCGGCCG (DNA, backbone and methylation of C not given here; further chemistry not fully specified; listed as Enterococcus faecium) [VanA(−)1325]
LABEL_CLASS: true

query: Strictly below 40000 RLU: is that where Probe Hybridization (in RLU) of GCTGAGCTTTGAATATCGCAGCC (AE label linker 8/9, chemistry not fully specified; listed as Enterococcus faecium) [VanA(−)792] sits?
result: false

query: Strictly below 40000 RLU: is that where Probe Hybridization (in RLU) of CCAAGCACCCGATATACTTTCTTTGCC (DNA, backbone and methylation of C not given here; further chemistry not fully specified; listed as Enterococcus faecalis) [VanB(−)1006] sits?
result: true

* * *

# Tested on: VanA and VanB gene sequences
# TEST: HPA for detecting VanA and VanB gene sequences (Example 12)
# Assay type: binding, E. faecalis, E. faecium
# SETUP_CONDITIONS: ATCC 51299 (VanB), E. faecalis lysate
# Method: Double-stranded plasmids harboring inserts of either VanA or VanB gene sequences were prepared for use as control templates. More specifically, VanA gene sequences were amplified in a PCR protocol using primers having the sequences of VanA(+)464 Kpn and VanA(−)1325Bam. Similarly, VanB gene sequences were amplified using primers having the sequences of VanB(+)084 Kpn and VanB(−)1006Bam. […]
READOUT: Probe Hybridization (in RLU)
Reply numerically in RLU, unit not repeated.

CHAIN_SEQUENCE: GGGTTGCTCAGAGGAGCATGACGTATCGG (DNA, backbone and methylation of C not given here; further chemistry not fully specified; listed as Enterococcus faecium) [VanA(+)464]
Probe Hybridization (in RLU): 765

Continue with the next sequence.
query: Can you look up the measured Probe Hybridization (in RLU) of CGCATCCATCAGGAAAACGAGCCGG (DNA, backbone and methylation of C not given here; acridinium ester (AE) label attached via linker; listed as Enterococcus faecalis) [VanB(+)428] for me?
result: 8113

* * *

# System: VanA and VanB gene sequences
# TEST: HPA for detecting VanA and VanB gene sequences (Example 12)
# Format: binding, E. faecalis, E. faecium
# SETUP_CONDITIONS: Probe Alone (no added target)
# binarize Probe Hybridization (in RLU): threshold 300 RLU inclusive, high side true, low side false

The following sequences have reported results that may help.
CHAIN_SEQUENCE: CCAAGCACCCGATATACTTTCTTTGCC (DNA, backbone and methylation of C not given here; further chemistry not fully specified; listed as Enterococcus faecalis) [VanB(−)1006]
LABEL_CLASS: true
//
CHAIN_SEQUENCE: GCTGAGCTTTGAATATCGCAGCC (AE label linker 8/9, chemistry not fully specified; listed as Enterococcus faecium) [VanA(−)792]
LABEL_CLASS: false
//
CHAIN_SEQUENCE: CGTTCAGTACAATGCGGCCG (DNA, backbone and methylation of C not given here; further chemistry not fully specified; listed as Enterococcus faecium) [VanA(−)1325]
LABEL_CLASS: true
//
CHAIN_SEQUENCE: GGGTTGCTCAGAGGAGCATGACGTATCGG (DNA, backbone and methylation of C not given here; further chemistry not fully specified; listed as Enterococcus faecium) [VanA(+)464]
LABEL_CLASS: true

Next:
query: Form field: Probe Hybridization (in RLU) at least 300 RLU? Entry: GAGCTTTGAATATCGCAGCCTAC (AE label linker 11/12, chemistry not fully specified; listed as Enterococcus faecalis) [Van A&B(−)734]
result: false

* * *

# System: VanA and VanB gene sequences
# TEST: HPA for detecting VanA and VanB gene sequences (Example 12)
# Assay type: binding, E. faecalis, E. faecium
# SETUP_CONDITIONS: ATCC 700221 (VanA), E. faecium lysate
// assign true (1) if Probe Hybridization (in RLU) falls strictly below 1000 RLU, else false (0) (ties count as false (0))

The following sequences have reported results that may help.
CHAIN_SEQUENCE: CCAAGCACCCGATATACTTTCTTTGCC (DNA, backbone and methylation of C not given here; further chemistry not fully specified; listed as Enterococcus faecalis) [VanB(−)1006]
LABEL_CLASS: false (0)

CHAIN_SEQUENCE: GAGCTTTGAATATCGCAGCCTAC (AE label linker 11/12, chemistry not fully specified; listed as Enterococcus faecalis) [Van A&B(−)734]
LABEL_CLASS: false (0)

CHAIN_SEQUENCE: CGCATCCATCAGGAAAACGAGCCGG (DNA, backbone and methylation of C not given here; acridinium ester (AE) label attached via linker; listed as Enterococcus faecalis) [VanB(+)428]
LABEL_CLASS: true (1)

CHAIN_SEQUENCE: CGTTCAGTACAATGCGGCCG (DNA, backbone and methylation of C not given here; further chemistry not fully specified; listed as Enterococcus faecium) [VanA(−)1325]
LABEL_CLASS: false (0)

CHAIN_SEQUENCE: CCGCAGCTTGCATGGACAAATCACTGGC (DNA, backbone and methylation of C not given here; further chemistry not fully specified; listed as Enterococcus faecalis) [VanB(+)084]
LABEL_CLASS: true (1)

query: Strictly below 1000 RLU: is that where Probe Hybridization (in RLU) of GCTGAGCTTTGAATATCGCAGCC (AE label linker 8/9, chemistry not fully specified; listed as Enterococcus faecium) [VanA(−)792] sits?
result: false (0)

query: Strictly below 1000 RLU: is that where Probe Hybridization (in RLU) of GGGTTGCTCAGAGGAGCATGACGTATCGG (DNA, backbone and methylation of C not given here; further chemistry not fully specified; listed as Enterococcus faecium) [VanA(+)464] sits?
result: false (0)
